System: Penicillium digitatum
protocol_text: Fungicidal activity against Penicillium digitatum at 26 degC after 48 hr by growth inhibition test
Type: functional, organism-based
Attribute: log10 of EC50
Field: value | Transform: log10 | Quantity: EC50 | Unit: µg/mL

[in] Bench note: what log10 of EC50 did "CC[C@@H](CCn1cncn1)c1ccc(Cl)cc1" show?
[out] 1.79

* * *

tested_system: Cytochrome P450 14alpha-demethylase (Penicillium digitatum, UniProt A1XG20)
Sequence (A1XG20 whole entry): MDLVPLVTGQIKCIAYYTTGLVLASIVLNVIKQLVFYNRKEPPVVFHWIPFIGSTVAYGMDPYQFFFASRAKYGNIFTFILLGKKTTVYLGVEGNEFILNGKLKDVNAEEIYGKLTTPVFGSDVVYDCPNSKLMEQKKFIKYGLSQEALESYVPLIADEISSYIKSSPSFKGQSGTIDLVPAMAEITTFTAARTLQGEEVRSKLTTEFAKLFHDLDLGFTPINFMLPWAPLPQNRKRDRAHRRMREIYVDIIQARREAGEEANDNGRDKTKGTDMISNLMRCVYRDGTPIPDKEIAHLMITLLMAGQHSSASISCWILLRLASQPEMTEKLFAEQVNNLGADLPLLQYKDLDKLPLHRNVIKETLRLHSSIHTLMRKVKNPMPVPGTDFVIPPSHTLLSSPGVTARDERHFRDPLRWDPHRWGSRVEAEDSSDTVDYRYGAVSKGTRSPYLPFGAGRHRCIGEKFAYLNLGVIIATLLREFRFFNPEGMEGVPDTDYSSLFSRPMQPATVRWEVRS
protocol_text: Binding affinity to Penicillium digitatum CYP51 expressed in Escherichia coli BL21 (DE3) cells by binding spectrum method
condition_set: read-out: Kd
measurement_label: Kd (nM)
Your answer is read as nM, so omit the unit and give the number.

Recorded Kd, per entry:
>  <compound>
CCCC[C@@H](CCn1cncn1)c1ccc(F)cc1

>  <Kd / nM>
150

$$$$
>  <compound>
CC(C)(C)C(=O)C(Oc1ccc(Cl)cc1)n1cncn1 (stereo not given) [TRIADIMEFON]

>  <Kd / nM>
990

$$$$
>  <compound>
CCCC[C@H](CCn1cncn1)c1ccc(F)cc1

>  <Kd / nM>
90

$$$$
>  <compound>
CCC[C@H](CCn1cncn1)c1ccccc1

>  <Kd / nM>
140

$$$$
>  <compound>
CCC[C@H](CCn1cncn1)c1ccc(F)cc1

>  <Kd / nM>
250

$$$$

[in] Bench note: what Kd did "CC[C@@H](CCn1cncn1)c1ccccc1" show?
[out] 1660

* * *

System: Penicillium digitatum
protocol_text: Fungicidal activity against Penicillium digitatum at 26 degC after 48 hr by growth inhibition test
Format: functional, organism-based
measurement_label: EC50 (mg/L)
Your answer is read as mg/L, so omit the unit and give the number.

Recorded EC50, per entry:
>  <record_smiles>
CC[C@@H](CCn1cncn1)c1ccccc1

>  <tested_system>
Penicillium digitatum

>  <unit_of_measurement>
mg/L

>  <reported_result>
89.6

$$$$
>  <record_smiles>
CC[C@H](CCn1cncn1)c1ccc(Cl)cc1

>  <tested_system>
Penicillium digitatum

>  <unit_of_measurement>
mg/L

>  <reported_result>
0.587

$$$$

Let us examine a further case.
[in] Bench note: what EC50 did "CC[C@H](CCn1cncn1)c1ccccc1" show?
[out] 0.577

* * *

Test system: Penicillium digitatum
protocol_text: Fungicidal activity against Penicillium digitatum at 26 degC after 48 hr by growth inhibition test
Assay type: functional, organism-based
measurement_label: EC50

Recorded EC50, per entry:
>  <molecule>
CCCC[C@@H](CCn1cncn1)c1ccc(F)cc1

>  <measurement_label>
EC50

>  <reported_result>
1.15 µg/mL

$$$$
>  <molecule>
CCC[C@H](CCn1cncn1)c1ccc(OC)cc1

>  <measurement_label>
EC50

>  <reported_result>
0.603 µg/mL

$$$$
>  <molecule>
CCCC[C@H](CCn1cncn1)c1ccc(F)cc1

>  <measurement_label>
EC50

>  <reported_result>
0.88 µg/mL

$$$$

Let us examine a further case.
[in] Bench note: what EC50 did "CCC[C@@H](CCn1cncn1)c1ccc(OC)cc1" show?
[out] 138 µg/mL

* * *

Attribute: pKd
tested_system: Cytochrome P450 14alpha-demethylase (Penicillium digitatum)
protocol_text: Binding affinity to Penicillium digitatum CYP51 expressed in Escherichia coli BL21 (DE3) cells by binding spectrum method
condition_set: read-out: Kd
Scale note: pKd = -log10(concentration in M).

Recorded pKd, per entry:
>  <compound>
CC[C@@H](CCn1cncn1)c1ccc(F)cc1

>  <pKd>
6.64

$$$$
>  <compound>
CCCC[C@H](CCn1cncn1)c1ccccc1

>  <pKd>
6.12

$$$$
>  <compound>
CC(C)(C)C(O)C(Oc1ccc(Cl)cc1)n1cncn1 (centres undefined) [TRIADIMENOL]

>  <pKd>
6.19

$$$$

[in] Bench note: what pKd did "CCCC[C@@H](CCn1cncn1)c1ccc(C)cc1" show?
[out] 5.91

[in] Bench note: what pKd did "CCCC[C@H](CCn1cncn1)c1ccc(C)cc1" show?
[out] 7.34

[in] Bench note: what pKd did "CCCC[C@@H](CCn1cncn1)c1ccc(OC)cc1" show?
[out] 6.74

[in] Bench note: what pKd did "CCCC[C@H](CCn1cncn1)c1ccc(Cl)cc1" show?
[out] 6.46

[in] Bench note: what pKd did "CC[C@@H](CCn1cncn1)c1ccc(OC)cc1" show?
[out] 6.30

[in] Bench note: what pKd did CC(C)(C)C(O)/C(=C\c1ccc(Cl)cc1Cl)n1cncn1 (centres undefined) [DINICONAZOLE] show?
[out] 6.92

[in] Bench note: what pKd did "CCCC[C@H](CCn1cncn1)c1ccc(OC)cc1" show?
[out] 7.31

[in] Bench note: what pKd did "CCC[C@@H](CCn1cncn1)c1ccccc1" show?
[out] 6.68

[in] Bench note: what pKd did "CCCC[C@@H](CCn1cncn1)c1ccc(Cl)cc1" show?
[out] 6.47

[in] Bench note: what pKd did "CC[C@H](CCn1cncn1)c1ccccc1" show?
[out] 7.47

[in] Bench note: what pKd did "CC[C@H](CCn1cncn1)c1ccc(Cl)cc1" show?
[out] 6.82

[in] Bench note: what pKd did CC(C)(C)C(O)(CCc1ccc(Cl)cc1)Cn1cncn1 (centres undefined) [TEBUCONAZOLE] show?
[out] 6.49

[in] Bench note: what pKd did "CCC[C@H](CCn1cncn1)c1ccc(OC)cc1" show?
[out] 6.82

[in] Bench note: what pKd did "CC[C@H](CCn1cncn1)c1ccc(F)cc1" show?
[out] 7.09

[in] Bench note: what pKd did "CC[C@H](CCn1cncn1)c1ccc(OC)cc1" show?
[out] 7.20

[in] Bench note: what pKd did "CC[C@@H](CCn1cncn1)c1ccc(Cl)cc1" show?
[out] 5.94

* * *

Tested on: Penicillium digitatum
protocol_text: Fungicidal activity against Penicillium digitatum at 26 degC after 48 hr by growth inhibition test
Type: functional, organism-based
measurement_label: EC50
Phrase the answer as number then unit, nothing more needed.

Recorded EC50, per entry:
>  <compound>
CC(C)(C)C(O)/C(=C/c1ccc(Cl)cc1Cl)n1cncn1 (stereo unspecified) [DINICONAZOLE]

>  <measurement_label>
EC50

>  <reported_result>
0.09 µg/mL

$$$$
>  <compound>
CCCC[C@H](CCn1cncn1)c1ccc(OC)cc1

>  <measurement_label>
EC50

>  <reported_result>
0.62 µg/mL

$$$$
>  <compound>
CC(C)(C)C(O)(CCc1ccc(Cl)cc1)Cn1cncn1 (stereo unspecified) [TEBUCONAZOLE]

>  <measurement_label>
EC50

>  <reported_result>
0.37 µg/mL

$$$$
>  <compound>
CCCC[C@@H](CCn1cncn1)c1ccc(OC)cc1

>  <measurement_label>
EC50

>  <reported_result>
0.97 µg/mL

$$$$

[in] Bench note: what EC50 did CC(C)(C)C(O)C(Oc1ccc(Cl)cc1)n1cncn1 (stereo unspecified) [TRIADIMENOL] show?
[out] 1.44 µg/mL

[in] Bench note: what EC50 did CC(C)(C)C(=O)C(Oc1ccc(Cl)cc1)n1cncn1 (stereo unspecified) [TRIADIMEFON] show?
[out] 2.27 µg/mL
